measurementTarget: Human Glucocorticoid Receptor (GR) (Homo sapiens)
Sequence (P04150 whole entry): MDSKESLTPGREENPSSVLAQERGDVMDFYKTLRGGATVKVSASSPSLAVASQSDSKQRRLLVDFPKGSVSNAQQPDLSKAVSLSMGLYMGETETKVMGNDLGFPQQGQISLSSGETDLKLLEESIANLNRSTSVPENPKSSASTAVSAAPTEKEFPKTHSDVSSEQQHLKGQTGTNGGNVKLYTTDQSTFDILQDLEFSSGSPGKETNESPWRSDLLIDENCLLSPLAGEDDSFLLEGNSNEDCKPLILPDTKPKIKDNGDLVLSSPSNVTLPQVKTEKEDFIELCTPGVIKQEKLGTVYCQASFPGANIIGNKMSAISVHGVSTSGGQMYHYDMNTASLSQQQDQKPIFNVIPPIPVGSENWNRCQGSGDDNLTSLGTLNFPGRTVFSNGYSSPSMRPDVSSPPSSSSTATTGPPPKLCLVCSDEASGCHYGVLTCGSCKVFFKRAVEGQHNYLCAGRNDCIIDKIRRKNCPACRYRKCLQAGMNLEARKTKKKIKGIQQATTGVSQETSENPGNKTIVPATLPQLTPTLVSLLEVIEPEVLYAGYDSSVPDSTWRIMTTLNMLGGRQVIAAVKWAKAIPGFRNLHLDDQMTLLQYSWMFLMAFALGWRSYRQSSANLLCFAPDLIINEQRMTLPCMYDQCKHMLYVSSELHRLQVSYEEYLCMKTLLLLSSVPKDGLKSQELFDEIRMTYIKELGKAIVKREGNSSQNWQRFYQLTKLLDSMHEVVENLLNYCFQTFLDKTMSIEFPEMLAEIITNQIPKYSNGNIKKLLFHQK
Please provide measured log10 of IC50 for the entries that follow.
Please keep in mind that the values are log10 of IC50 expressed in nM.

molecule=C[C@H](NC(=O)C(C)(F)F)[C@H](Oc1ccc2c(cnn2-c2cccc(C(=O)NCCN3CCCC3=O)c2)c1)c1ccccc1 reported=1.58
molecule=C[C@H](NC(=O)c1cccc(-n2ncc3cc(O[C@H](c4ccccc4)[C@H](C)NC(=O)C(C)(F)F)ccc32)c1)C(N)=O reported=0.29
molecule=COc1ccc([C@@H](Oc2ccc3c(cnn3-c3cccc(C(=O)NCc4cccnc4)c3)c2)[C@H](C)NC(=O)C(C)(F)F)cn1 reported=0.14
molecule="COc1ccc([C@@H](Oc2ccc3c(cnn3-c3cccc(C(=O)NC4CCOC4)c3)c2)[C@H](C)NC(=O)C(C)(F)F)cn1 (stereo partly shown)" reported=0.48
molecule=C[C@H](NC(=O)C(C)(F)F)[C@H](Oc1ccc2c(cnn2-c2cccc(C(=O)N3CCNC(=O)C3)c2)c1)c1ccccc1 reported=0.40
molecule=C[C@H](NC(=O)C1(C#N)CC1)[C@H](Oc1ccc2c(cnn2-c2cccc(C(=O)N3CCC[C@@H]3C(N)=O)c2)c1)c1ccccc1 reported=0.46

Provide log10 of IC50 for all items below, preserving their order.
1. COc1ccc([C@@H](Oc2ccc3c(cnn3-c3cccc(C(=O)NC4CCCC4)c3)c2)[C@H](C)NC(=O)C(C)(F)F)cn1
2. C[C@H](NC(=O)C(C)(F)F)[C@H](Oc1ccc2c(cnn2-c2cccc(C(=O)NCC(N)=O)c2)c1)c1ccccc1
3. C[C@H](NC(=O)C(C)(F)F)[C@H](Oc1ccc2c(cnn2-c2cccc(C(=O)N3C[C@H](O)C[C@H]3C(N)=O)c2)c1)c1ccccc1
4. COc1ccc([C@@H](Oc2ccc3c(cnn3-c3cccc(C(=O)NC4CCS(=O)(=O)C4)c3)c2)[C@H](C)NC(=O)C(C)(F)F)cn1 (stereo partly shown)
5. C[C@H](NC(=O)C(C)(F)F)[C@H](Oc1ccc2c(cnn2-c2cccc(C(=O)NCCN3C(=O)OC(C)(C)C3=O)c2)c1)c1ccccc1

[0.14, 0.21, 1.88, 0.65, 1.60]

Provide log10 of IC50 for all items below, preserving their order.
1. CCC(O)CNC(=O)c1cccc(-n2ncc3cc(O[C@H](c4ccc(OC)nc4)[C@H](C)NC(=O)C(C)(F)F)ccc32)c1 (stereo partly shown)
2. C[C@H](NC(=O)C(C)(F)F)[C@H](Oc1ccc2c(cnn2-c2cccc(C(=O)N3CC[C@@H](O)C3)c2)c1)c1ccccc1

1. 0.62
2. 0.75
